- Test system: Panc 05.04 cells (SF3b K700E mutant)
- assay-notes: Cell proliferation and viability, CellTiter-Glo, 72 hours
- Format: cell-based
- experimental-conditions: PANC0504.1 cells, 72 h; −100% cidal, 0% static, 100% maximal growth
Short version: CTGlo-ATS Mean MinResponse % 72 h PANC0504.1 at least -90% is True, less is False.

Hi, just wondering whether C/C(=C\c1cc(F)cc(N2CCOCC2)c1)[C@H]1OC(=O)C[C@H](O)CC[C@H](C)[C@@H](OC(=O)N(C)C2CCN(C)CC2)/C=C/[C@@H]1C shows CTGlo-ATS Mean MinResponse % 72 h PANC0504.1 of -90% or higher.
True

Hi, just wondering whether C/C(=C\c1cccc(S(=O)(=O)N2CCNCC2)c1)[C@H]1OC(=O)C[C@H](O)CC[C@H](C)[C@@H](OC(=O)N2CCN(C)CC2)/C=C/[C@@H]1C shows CTGlo-ATS Mean MinResponse % 72 h PANC0504.1 of -90% or higher.
False

Hi, just wondering whether C/C(=C\c1cc(F)c2cnn(CC3CC3)c2c1)[C@H]1OC(=O)C[C@H](O)CC[C@H](C)[C@@H](OC(=O)N2CCN(C)CC2)/C=C/[C@@H]1C shows CTGlo-ATS Mean MinResponse % 72 h PANC0504.1 of -90% or higher.
True

Hi, just wondering whether CC[C@H](O)[C@@H](C)C(=O)N1CCN(c2cc(F)cc(/C=C(\C)[C@H]3OC(=O)C[C@H](O)CC[C@H](C)[C@@H](OC(=O)N4CCN(C)CC4)/C=C/[C@@H]3C)c2)CC1 shows CTGlo-ATS Mean MinResponse % 72 h PANC0504.1 of -90% or higher.
True

Hi, just wondering whether C/C(=C\c1ccc(C)c2[nH]ncc12)[C@H]1OC(=O)C[C@H](O)CC[C@H](C)[C@@H](OC(=O)N2CCN(C)CC2)/C=C/[C@@H]1C shows CTGlo-ATS Mean MinResponse % 72 h PANC0504.1 of -90% or higher.
True

Hi, just wondering whether C/C(=C\c1cc(F)c2cnn(CC#N)c2c1)[C@H]1OC(=O)C[C@H](O)CC[C@H](C)[C@@H](OC(=O)N2CCN(C)CC2)/C=C/[C@@H]1C shows CTGlo-ATS Mean MinResponse % 72 h PANC0504.1 of -90% or higher.
False

Hi, just wondering whether C/C(=C\c1cnn(C)c1)[C@H]1OC(=O)C[C@H](O)CC[C@H](C)[C@@H](OC(=O)N2CCN(C)CC2)/C=C/[C@@H]1C shows CTGlo-ATS Mean MinResponse % 72 h PANC0504.1 of -90% or higher.
True
